- Test system: HSV-2 (G)
- experiment: HSV-2 infection of primary monocyte/macrophage (M/M) cultures
- Format: cell-based
- conditionDescription: Human alphaherpesvirus 2; HSV-2 (G), human monocyte/macrophages
propertyMeasured: EC50 (µg/mL)
Your answer should be a plain number; it is taken to be in µg/mL.

Before answering, review these 3 worked examples.
molecule	propertyMeasured	unitName	value
C[C@H](Cn1cnc2c(N)ncnc21)OCP(=O)(O)O	EC50	µg/mL	0.2
Nc1cc(OCCOCP(=O)(O)O)nc(N)n1	EC50	µg/mL	0.09
Nc1ncnc2c1ncn2CCOCP(=O)(O)O	EC50	µg/mL	0.016

Next molecule, EC50 to be filled in.
Recorded EC50 of Nc1nc2c(ncn2COCCO)c(=O)[nH]1 [Acyclovir, 9-(2-hydroxyethyloxymethyl)guanine] , please.
0.13
